Experiment Summary: Components of the Cytosolic LPS Sensing Pathway: Gene Identification via Genome-wide siRNA Screen;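 note: robust z of the log signal after scaling to non-targeting control siRNA wells of the plate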
Measurement Setup: RAW264.7 macrophages, IL-1a HTRF, actives lie on both sides, screened at 100 nM (by protocol), cells primed 5 h with Pam3CSK4 first
About 3,700 (7%) of roughly 53,000 sequences were called active. The sample as a whole holds a higher share of actives than the screen did.
Recorded z-score values for a group of sequences are listed next.
Give the value as a plain number.

Example cases with answers are listed next.
[[record]]
seq_text = "CCCUUAAUAAAGAAGGGACTT against Atg9a"
metric_name = "z-score"
experimental_value = 0.961

[[record]]
seq_text = "GGUAUCAGACAGCUGUAACTT against Mptx1"
metric_name = "z-score"
experimental_value = 0.359

[[record]]
seq_text = "GGCAAAAUCGUGAAAAUUCTT against Vwf"
metric_name = "z-score"
experimental_value = -0.144

[[record]]
seq_text = "GGAAGUGGAAUAUGUCACCTT against Cd300lf"
metric_name = "z-score"
experimental_value = -0.206


Now consider a different sequence.
Output measured z-score for this item: GCGGAAAGGCCAAACGAUUTT against Inhbb -0.734

Data credit: PubChem BioAssay AID1508600
